- tgt: UniProtKB P14600
- Sequence (P14600 whole entry): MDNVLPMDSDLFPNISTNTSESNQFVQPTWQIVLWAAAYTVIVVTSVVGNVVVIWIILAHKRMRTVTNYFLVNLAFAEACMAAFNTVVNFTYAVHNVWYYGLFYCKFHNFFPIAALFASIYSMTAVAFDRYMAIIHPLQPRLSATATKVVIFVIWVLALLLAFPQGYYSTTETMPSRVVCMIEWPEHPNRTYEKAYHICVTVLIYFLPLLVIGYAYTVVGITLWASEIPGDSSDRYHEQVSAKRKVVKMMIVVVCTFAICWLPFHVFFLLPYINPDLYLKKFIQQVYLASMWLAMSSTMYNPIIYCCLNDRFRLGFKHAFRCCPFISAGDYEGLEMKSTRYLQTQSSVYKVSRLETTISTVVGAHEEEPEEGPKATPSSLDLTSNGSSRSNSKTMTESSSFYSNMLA
- measurement_description: Inhibition of Tachykinin receptor 1 of rat forebrain tissue
metric: log10(IC50) (log10 of the value in µM)
// stored as log10 of IC50 expressed in µM

Sample records with log10(IC50):
> print(dat)
                                   molecule               tgt       metric  measured
1  CCn1c(/C=C/C=C2\N(C)c3ccccc3C2(C)C)[n+](CCOC(C)=O)c2cc3ccccc3cc21  UniProtKB P14600  log10(IC50)     -0.39
2  CCn1c2[n+](c3cc4ccccc4cc31)C(C)CC2=C/C=C1\N(C)c2ccc3ccccc3c2C1(C)C (stereo unspecified)  UniProtKB P14600  log10(IC50)     -0.51
3  CCN1/C(=C\C=C\c2n(CC)c3cc4ccccc4cc3[n+]2CC)Oc2ccccc21  UniProtKB P14600  log10(IC50)     -0.51
4  CCN1/C(=C\C=C\c2n(CC)c3cc4ccccc4cc3[n+]2CC)Sc2ccccc21  UniProtKB P14600  log10(IC50)     -0.49
5  CCN1/C(=C\C=C2CC(C)[n+]3c2n(CC)c2cc4ccccc4cc23)Sc2ccccc21 (stereo unspecified)  UniProtKB P14600  log10(IC50)     -0.74

API: the following record is the query input.
QUERY: Annotate the molecule CCN1/C(=C\C=C2CC[n+]3c2n(CC)c2cc4ccccc4cc23)Oc2ccccc21 with its measured log10(IC50).
RESULT: 0.62
